molecular target: Human FRα ECD-Avi-His (human); test: HTRF antigen binding assay; hybridoma supernatant at 25%, 1 nM biotinylated antigen
Sequence (chain, as listed by the source limits assumed): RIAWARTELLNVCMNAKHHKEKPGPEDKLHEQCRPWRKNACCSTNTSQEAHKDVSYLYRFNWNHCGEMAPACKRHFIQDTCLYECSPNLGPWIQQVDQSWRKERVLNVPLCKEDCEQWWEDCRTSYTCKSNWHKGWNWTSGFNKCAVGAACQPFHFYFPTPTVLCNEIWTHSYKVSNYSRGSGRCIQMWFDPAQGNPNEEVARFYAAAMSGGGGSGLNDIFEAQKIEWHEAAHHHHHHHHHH
# % Delta F annotations
Unit % Delta F implied. Number only.

INSERT INTO assay_data (binder, reported_value) VALUES
  ('AB1370026 (hybridoma IgG) (antibody, V domains shown) VH: EVQLVESGGGLVKPGGSLRLSCAASGFTFSSYAMSWVRQAPGKGLEWVSSISSGRSYIYYADSVKGRFTISRDNAKNSLYLKMNSLRDEDTAVYYCAREMQQLALDYWGQGTLVTVSS VL: DIQMTQSPSSLSASVGDRVTITCRASQGISNFLAWFQQAPGKAPKSLIYAASSLQSGVPSKFSGSGSGTDFTLTISSLQPEDFATYYCQQYNSYPFTFGQGTKLEIK', 271),
  ('AB1370095 (hybridoma IgG) (antibody, V domains shown) VH: EVQLVESGGGLVKPGGSLRLSCAASGFTFSSYSMNWVRQAPGKGLEWVSSISSRSSYVYYADSVKGRFTISRDNAKNSLYLQMNSLRAEDTAVYYCARGMTTLTFDYWGQGTLVTVSS VL: DIQMTQSPSSLSASVGDRVTITCRASQGISSFLAWFQQKPGKAPKSLIYAASSLQSGVPSKFSGSGSGTDFTLTISSLQPEDFATYYCQQYNSYPLTFGGGTKVEIK', 126),
  ('AB1370035 (hybridoma IgG) (antibody, V domains shown) VH: QVQLQQSGPGLVKPSQTLSLTCAISGDSVSSNSAAWNWIRQSPSRGLEWLGRTYYRSNWYNDYTLSVKSRITVNPDTSKNQFSLQLNSVTPEDTAVYYCVRGVGRFDSWGQGTLVTVSS VL: DIQMTQSPSTLSASVGDRVIITCRASQSISSWLAWYQQKPGKAPKLLIYKASSLESGVPSRFSGSGSGTEFTLTITSLQPDDFASYYCQEYKTYSIFTFGPGTKVDIK', 225);

We now examine a further binder.
Query: Please look up its % Delta F: AB1370083 (hybridoma IgG) (antibody, V domains shown) VH: EVQLVESGGGLVKPGGSLRLSCAASGFTFSSYNMNWVRQAPGKGLEWVSSISSGSSYIYYADSMKGRFTISRDNAKNSLFLQMNSLRAEDTAVYYCARGMTTLTFDYWGQGTLVTVSS VL: DIQMTQSPSSLSASVGDRVTITCRASQGISTFLAWFQQKPGKAPKSLIYAASSLQSGVPSKFSGSGSETDFTLTISSLQPEDFATYYCQQYISYPLTFGGGTKVEIK
Reply: 140
